Source of measurements: ChEMBL document CHEMBL1165848

# TARGET SYSTEM: Cholesteryl ester transfer protein (Oryctolagus cuniculus)
# Sequence (P22687 whole entry): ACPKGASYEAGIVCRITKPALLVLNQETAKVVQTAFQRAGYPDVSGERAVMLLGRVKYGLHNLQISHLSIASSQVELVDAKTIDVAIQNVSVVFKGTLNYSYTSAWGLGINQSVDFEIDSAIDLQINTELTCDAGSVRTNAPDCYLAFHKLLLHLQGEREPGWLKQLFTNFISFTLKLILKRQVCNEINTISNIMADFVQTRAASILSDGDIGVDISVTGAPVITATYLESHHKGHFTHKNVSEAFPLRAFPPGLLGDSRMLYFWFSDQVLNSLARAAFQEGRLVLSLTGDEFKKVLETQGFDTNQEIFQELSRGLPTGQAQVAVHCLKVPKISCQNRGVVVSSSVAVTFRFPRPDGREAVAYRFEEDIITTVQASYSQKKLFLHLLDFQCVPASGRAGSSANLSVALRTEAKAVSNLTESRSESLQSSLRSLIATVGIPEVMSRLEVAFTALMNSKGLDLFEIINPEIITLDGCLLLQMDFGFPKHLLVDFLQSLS
# TEST PROTOCOL: Inhibition of CETP in rabbit serum after 1 hr by fluorescent cholesteryl esters transfer assay
# CONDITION DETAILS: read-out: IC50
Answer each item with its documented pIC50.
Numbers only, as −log10 of the molar value.

Please review the following examples before continuing.
OC(CN(Cc1cccc(OC(F)(F)C(F)F)c1)c1cccc(OC2CCCC2)c1)C(F)(F)F (centres undefined) | 6.40
COc1cccc(CN(CC(O)C(F)(F)F)c2cccc(Oc3ccccc3)c2)c1 (centres undefined) | 4.82
OC(CN(Cc1cccc(OC(F)(F)C(F)F)c1)c1cccc(F)c1)C(F)(F)F (centres undefined) | 5.35

# map each compound to its pIC50
1. OC(CN(Cc1cccc(-c2ncccc2C(F)(F)F)c1)c1cccc(Oc2ccccc2)c1)C(F)(F)F (centres undefined)
2. CC(C)c1ccc(Oc2cccc(N(Cc3cccc(OC(F)(F)C(F)F)c3)CC(O)C(F)(F)F)c2)cc1 (centres undefined)
3. CCCC(O)CN(Cc1cccc(OC(F)(F)F)c1)c1ccccc1Oc1ccccc1 (centres undefined)
4. OC(CN(Cc1cccc(OC(F)(F)C(F)F)c1)c1cccc(Oc2ccc(Cl)c(Cl)c2)c1)C(F)(F)F (centres undefined)

Result:
1: 5.39; 2: 6.40; 3: 5.44; 4: 7.10
